Where these numbers come from: patent US20110082079A1

// values below are reported EC50
Target: T1, human serum albumin (HSA) (human, UniProt P02768 25-609, biotinylated)
T1 construct: also called biotinylated HSA
Assay: competition SPA on biotinylated HSA beads; competitor 125I-labelled acylated GLP-1 analogue
*1 amine or outer side, *2 acyl side, *3 side chain or, on linkers, in order; H or OH if unused. Where no end group is shown, it is not given here. Side-chain parts run from the residue outwards. [ ]: non-standard residue; d: D form. The star is where a group is joined. C20 diacid = O=C(O)CCCCCCCCCCCCCCCCCCC(=O)*; C16 diacid = O=C(O)CCCCCCCCCCCCCCC(=O)*; γGlu = O=C(O)[C@H](CCC(=O)[*:2])N[*:1]; Desaminohistidyl = O=C(CCc1c[nH]cn1)*; βAsp = O=C(O)[C@H](CC(=O)[*:2])N[*:1]; AEEA = NCCOCCOCC(=O)O; Aib = CC(C)(N)C(=O)O; Inp = O=C(O)C1CCNCC1

// worked examples, EC50 included
XAEGTFTSDVSSYLEEQAAREXIAWLVRGRK (desamino-histidine at 7; m-CF3-phenylalanine at 28; residue 37 acylated at N-epsilon with the side chain given in the name; C-terminal amide)
1500 to 2000 nM
H[Aib]EGTFTSDVSSYLEEQAAREFIK([AEEA-AEEA-βAsp-Inp-C20 diacid])WLVKGRG
200 to 400 nM
H[Aib]EGTFTSDVSSYLEEQAAREFIEWLVKGRPK (not fully specified (residue 32); printed as [Aib8,Glu22,Arg26,Glu30,Pro37]GLP-1-(7-37)Lys [2-(2-{2-[4-Carboxy-4-(4-carboxy-4-{4-[4-(16-1H-tetrazol-5-yl-hexadecanoylsulfamoyl)butyrylamino]butyrylamino}butyrylamino)butyrylamino]ethoxy}ethoxy)acetyl]) [[Aib8,Glu22,Arg26,Glu30,Pro37]GLP-1-(7-37)Lys …]
150 to 200 nM

Now consider the entry below.
Given item [Desaminohistidyl]AEGTFTSDVSSYLEEQAAREFIEWLVRGK([AEEA-AEEA-γGlu-C16 diacid])GEK , the value recorded as its EC50 is > 2000 nM
